B1: RPAIN (parent)
chain: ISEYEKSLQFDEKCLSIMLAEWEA

- Variants of: B1
- test_description: protein stability index of a GFP-peptide fusion (GPS, HEK-293T) (PSI 1-6); higher = more stable;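 note: lentivirally expressed fusions sorted by FACS into six bins by GFP to DsRed ratio, PSI derived from sequencing read proportions per bin multiplied by bin number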
- experimental_parameters: c terminus: a fixed tail appended
Rule: protein stability index of 2 or more gives True; anything lower gives False.

Item F10Q with protein stability index of 2 or above? True

Item K6R with protein stability index of 2 or above? True

Item M18A with protein stability index of 2 or above? False

Item L15K with protein stability index of 2 or above? True

Item S2G with protein stability index of 2 or above? False
